IC50 values by entry
- target_under_test: PI3K-gamma (Homo sapiens)
- Sequence (P48736 whole entry, species assumed): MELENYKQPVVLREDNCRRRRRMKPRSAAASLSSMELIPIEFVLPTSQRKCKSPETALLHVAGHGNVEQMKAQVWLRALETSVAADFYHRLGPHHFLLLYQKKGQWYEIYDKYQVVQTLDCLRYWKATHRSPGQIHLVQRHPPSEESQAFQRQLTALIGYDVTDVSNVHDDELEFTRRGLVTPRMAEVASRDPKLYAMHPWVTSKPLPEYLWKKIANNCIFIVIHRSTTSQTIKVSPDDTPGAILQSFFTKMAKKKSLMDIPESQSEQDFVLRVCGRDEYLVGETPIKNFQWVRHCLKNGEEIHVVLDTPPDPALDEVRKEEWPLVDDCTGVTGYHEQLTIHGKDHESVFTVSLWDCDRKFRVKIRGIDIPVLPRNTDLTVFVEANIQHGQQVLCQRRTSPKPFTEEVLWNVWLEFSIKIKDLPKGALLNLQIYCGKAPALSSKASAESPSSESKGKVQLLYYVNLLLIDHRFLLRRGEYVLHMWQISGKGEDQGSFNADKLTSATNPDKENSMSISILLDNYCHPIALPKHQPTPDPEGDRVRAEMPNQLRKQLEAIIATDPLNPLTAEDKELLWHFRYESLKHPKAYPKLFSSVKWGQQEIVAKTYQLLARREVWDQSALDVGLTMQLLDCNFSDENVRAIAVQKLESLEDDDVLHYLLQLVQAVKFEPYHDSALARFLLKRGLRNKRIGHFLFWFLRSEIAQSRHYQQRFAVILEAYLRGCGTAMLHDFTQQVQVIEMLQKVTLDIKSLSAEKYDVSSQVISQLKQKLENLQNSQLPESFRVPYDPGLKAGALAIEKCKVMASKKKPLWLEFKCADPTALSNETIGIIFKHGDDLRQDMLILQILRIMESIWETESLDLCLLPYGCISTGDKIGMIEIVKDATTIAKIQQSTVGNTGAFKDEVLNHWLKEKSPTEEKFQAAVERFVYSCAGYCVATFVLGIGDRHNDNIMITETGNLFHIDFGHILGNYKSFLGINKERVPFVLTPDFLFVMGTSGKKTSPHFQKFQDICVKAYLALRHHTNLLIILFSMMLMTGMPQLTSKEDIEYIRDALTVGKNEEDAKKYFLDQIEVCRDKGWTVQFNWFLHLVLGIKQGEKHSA
- procedure_text: PI3K-gamma fluorescence polarization assay
- Format: biochemical
- experimental_context: PI3Kγ Avg. IC50

Some molecules with recorded IC50:
# molecule, target_under_test, experimental_endpoint, result
records = [
    ("COc1ccc2c(c1)c(/C=C1\\Oc3cc(O)cc(Br)c3C1=O)c(C)n2CCN1CCN(C)CC1", "PI3K-gamma (Homo sapiens)", "IC50", "3130 nM"),
    ("COc1ccc2[nH]cc(/C=C3\\Oc4ccc(-c5nnn[nH]5)cc4C3=O)c2c1", "PI3K-gamma (Homo sapiens)", "IC50", "> 10000 nM"),
    ("CNC(=O)Nc1ccc2c(c1)C(=O)/C(=C/c1c(-c3cnn(C)c3C)[nH]c3ccc(OC)cc13)O2", "PI3K-gamma (Homo sapiens)", "IC50", "4.1 nM"),
    ("CCn1c(C)c(/C=C2\\Oc3ccc(NC(=O)Nc4ccc(C(=O)C5CCN(C)CC5)cc4)cc3C2=O)c2cc(OC)ccc21", "PI3K-gamma (Homo sapiens)", "IC50", "19.7 nM"),
    ("Cn1cc(C=C2Oc3cc(O)cc(O)c3C2=O)c2c(-c3ccccc3)cccc21 (single isomer, unassigned) [Compound 544]", "PI3K-gamma (Homo sapiens)", "IC50", "2150 nM"),
]

Problem: So what's the measured IC50 for this one? `Cc1noc(C)c1-c1[nH]c2ccccc2c1C=C1Oc2cc(O)cc(O)c2C1=O`
Solution: 6430 nM

Problem: So what's the measured IC50 for this one? `CNCCn1c(-c2c(C)nn(C)c2C)c(/C=C2\Oc3ccc(NC(=O)NC)cc3C2=O)c2cc(OC)ccc21`
Solution: 180 nM
